Each record here notes measured IC50.
- ASSAYED TARGET: human PDE9A2 (Homo sapiens)
- Construct: made in house; host or cells: Sf9 insect cells (infected; crude lysate used as enzyme source)
- Sequence (O76083 1-533 isoform O76083-2): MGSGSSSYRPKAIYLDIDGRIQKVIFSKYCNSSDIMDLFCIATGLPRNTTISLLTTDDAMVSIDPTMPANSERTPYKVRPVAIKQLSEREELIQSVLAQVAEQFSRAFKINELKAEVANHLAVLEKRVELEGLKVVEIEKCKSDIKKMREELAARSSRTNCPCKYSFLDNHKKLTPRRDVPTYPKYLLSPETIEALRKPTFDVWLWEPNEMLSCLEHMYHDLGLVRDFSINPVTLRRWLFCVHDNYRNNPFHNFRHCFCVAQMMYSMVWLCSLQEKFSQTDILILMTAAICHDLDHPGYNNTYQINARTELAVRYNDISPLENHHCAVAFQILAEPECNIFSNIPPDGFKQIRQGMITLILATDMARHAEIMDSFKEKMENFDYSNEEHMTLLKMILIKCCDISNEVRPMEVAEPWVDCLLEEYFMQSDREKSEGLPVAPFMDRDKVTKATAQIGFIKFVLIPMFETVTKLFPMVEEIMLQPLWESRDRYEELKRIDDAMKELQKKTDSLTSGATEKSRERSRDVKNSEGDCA
- EXPERIMENTAL DETAILS: PDE9A2 enzymatic activity assay (scintillation proximity assay)
- Type: biochemical
- EXPERIMENTAL CONDITIONS: specific IC50 value lies within the given range; read-out: IC50 within range [nanomolar (nM)]

Some solved cases for reference:
1. O=C([C@H]1CC[C@@H]1c1nc2c(cnn2C2CCC(F)(F)CC2)c(=O)[nH]1)N1CCC2(CC2)C1 (racemic); 1 to 200 nM
2. COC(=O)C1CCCC(c2nc3c(cnn3-c3ccccc3C)c(=O)[nH]2)C1 (mixture of isomers); 1 to 200 nM
3. CCOC(=O)[C@H]1C[C@H]1c1nc2c(cnn2C(CC)CC)c(=O)[nH]1 (stereo in doubt); 201 to 5000 nM
4. Cc1ccccc1-n1ncc2c(=O)[nH]c(C3CC3)nc21; 201 to 5000 nM
5. O=C([C@H]1CC[C@@H]1c1nc2c(cnn2C2CCC(F)(F)CC2)c(=O)[nH]1)N1CCCCC1 (racemic); 1 to 200 nM
6. O=C([C@H]1CC[C@@H]1c1nc2c(cnn2C2CCC(F)(F)CC2)c(=O)[nH]1)N1CCC(C(F)(F)F)CC1 (racemic); 1 to 200 nM

Consider the compound shown here: C#CCNC(=O)C1CCC1c1nc2c(cnn2C2CCC(F)(F)CC2)c(=O)[nH]1 (racemic) What is its recorded IC50?
1 to 200 nM

Consider the compound shown here: CCC(CC)n1ncc2c(=O)[nH]c(C3CCC(C(=O)Nc4cc(OC)cc(OC)c4)CC3)nc21 (mixture of isomers) What is its recorded IC50?
201 to 5000 nM

Consider the compound shown here: Cc1ccccc1-n1ncc2c(=O)[nH]c(C3CCC(O)C(O)C3)nc21 (mixture of isomers) What is its recorded IC50?
201 to 5000 nM

Consider the compound shown here: CCOC(=O)[C@H]1CC[C@@H]1c1nc2c(cnn2C2CCCC2)c(=O)[nH]1 (racemic) What is its recorded IC50?
1 to 200 nM

Consider the compound shown here: O=C([C@H]1CC[C@@H]1c1nc2c(cnn2C2CCC(F)(F)CC2)c(=O)[nH]1)N1CC[C@@H](F)C1 (racemic) What is its recorded IC50?
1 to 200 nM

Consider the compound shown here: O=C([C@H]1CC[C@@H]1c1nc2c(cnn2C2CCC(F)(F)CC2)c(=O)[nH]1)N1CCOCC1 (racemic) What is its recorded IC50?
1 to 200 nM

Consider the compound shown here: Cc1ccncc1-n1ncc2c(=O)[nH]c([C@H]3C[C@@H]3C)nc21 (racemic) What is its recorded IC50?
1 to 200 nM

Consider the compound shown here: O=c1[nH]c([C@@H]2CC[C@H]2CN2CC(F)(F)C(F)(F)C2)nc2c1cnn2C1CCC(F)(F)CC1 (racemic) What is its recorded IC50?
1 to 200 nM

Consider the compound shown here: CO[C@@H]1CCN(C(=O)[C@H]2CC[C@@H]2c2nc3c(cnn3C3CCC(F)(F)CC3)c(=O)[nH]2)C1 (racemic) What is its recorded IC50?
1 to 200 nM

----------
- ASSAYED TARGET: human PDE9A2 (Homo sapiens)
- Construct: made in house; host or cells: Sf9 insect cells (infected; crude lysate used as enzyme source)
- EXPERIMENTAL DETAILS: PDE9A2 enzymatic activity assay (scintillation proximity assay)
- Format: biochemical
- EXPERIMENTAL CONDITIONS: specific IC50 value lies within the given range; read-out: IC50 within range [nanomolar (nM)]
- Description: The PDE9A2 enzymatic activity assay was run as scintillation proximity assay (SPA), in general according to the protocol of the manufacturer (Amersham Biosciences, product number: TRKQ 7100). As enzyme source, lysate (PBS with 1% Triton X-100 supplemented with protease inhibitors, cell debris removed by centrifugation at 13.000 rpm for 30 min) of SF 9 cell expressing the human PDE9A2 was used. […]
Each record here notes measured IC50.

Some solved cases for reference:
1) O=C([C@H]1CC[C@@H]1c1nc2c(cnn2C2CCC(F)(F)CC2)c(=O)[nH]1)N1CCC(F)CC1 (racemic); 1 to 200 nM
2) CC1(C)CCN(C(=O)[C@H]2CC[C@@H]2c2nc3c(cnn3C3CCC(F)(F)CC3)c(=O)[nH]2)CC1 (racemic); 1 to 200 nM
3) O=C([C@H]1CCC[C@@H]1c1nc2c(cnn2C2CCC(F)(F)CC2)c(=O)[nH]1)N1CCC(F)(F)CC1 (racemic); 1 to 200 nM
4) O=C([C@@H]1CC[C@@H]1c1nc2c(cnn2C2CCC(F)(F)CC2)c(=O)[nH]1)N1CCCCC1 (racemic); 201 to 5000 nM
5) O=C([C@H]1CCCC[C@@H]1c1nc2c(cnn2C2CCC(F)(F)CC2)c(=O)[nH]1)N1CCOCC1 (racemic); 201 to 5000 nM

Consider the molecule shown here: `O=c1[nH]c(C2CCC2)nc2c1cnn2C1CCC(F)(F)CC1` What is its recorded IC50?
1 to 200 nM

Consider the molecule shown here: O=C([C@H]1CCC[C@@H]1c1nc2c(cnn2C2CCC(F)(F)CC2)c(=O)[nH]1)N1CCCCC1 (racemic) What is its recorded IC50?
201 to 5000 nM
